Assay Info: Selectivity index, ratio of CC50 for human HepG2 cells to IC50 for axenic amastigote stage of Leishmania infantum
Assay type: toxicity
Experimental Conditions: read-out: Ratio CC50/IC50

# Compound Structure, selectivity ratio
data = [
    ("O=[N+]([O-])c1c(CS(=O)(=O)c2ccccc2)nc2c(-c3ccccc3C(F)(F)F)cc(Cl)cn12", 14.2),
    ("O=[N+]([O-])c1c(CS(=O)(=O)c2ccccc2)nc2c(-c3cccc(CO)c3)cc(Cl)cn12", "> 17.9"),
    ("O=Cc1ccc(-c2cc(Cl)cn3c([N+](=O)[O-])c(CS(=O)(=O)c4ccccc4)nc23)cc1", "> 8.2"),
    ("O=[N+]([O-])c1c(CS(=O)(=O)c2ccccc2)nc2c(-c3cccc(F)c3)cc(Cl)cn12", "> 7.4"),
    ("O=[N+]([O-])c1c(CS(=O)(=O)c2ccccc2)nc2c(-c3cccc(C(F)(F)F)c3)cc(Cl)cn12", "> 11.4"),
    ("O=[N+]([O-])c1c(CS(=O)(=O)c2ccccc2)nc2c(-c3ccc(CO)cc3)cc(Cl)cn12", 8.7),
]

---

// values below are reported Activity
Assay Info: Electrochemical behavior of the compound assessed as redox potential corrected toward normal hydrogen electrode by cyclic voltammetry
Format: physicochemical

# Compound Structure, Activity (V)
data = [
    ("O=[N+]([O-])c1c(CS(=O)(=O)c2ccccc2)nc2c(-c3ccncc3)cc(Cl)cn12", -0.64),
    ("O=[N+]([O-])c1c(CS(=O)(=O)c2ccccc2)nc2c(Br)cc(Cl)cn12", -0.65),
    ("O=[N+]([O-])c1c(CS(=O)(=O)c2ccccc2)nc2c(-c3ccccc3CO)cc(Cl)cn12", -0.7),
]

---

Collected CC50 at 72 h values appear next to each entry.
Assay Info: Cytotoxicity against human THP1 cells assessed as reduction in cell viability after 72 hrs by MTT assay
Assay type: cell-based, THP-1
Experimental Conditions: THP1 cells

# Compound, Scale Unit, Relation Qualifier, CC50 at 72 h
data = [
    ("CSc1ccc(OCc2ncc([N+](=O)[O-])n2C)cc1 [FEXINIDAZOLE]", "µM", "=", 3.6),
    ("C[C@@H]1[C@H](O)[C@@H](C)/C=C/C=C/C=C/C=C/C=C/C=C/C=C/[C@H](O[C@@H]2O[C@H](C)[C@@H](O)[C@H](N)[C@@H]2O)C[C@@H]2O[C@](O)(C[C@@H](O)C[C@@H](O)[C@H](O)CC[C@@H](O)C[C@@H](O)CC(=O)O[C@H]1C)C[C@H](O)[C@H]2C(=O)O [AMPHOTERICIN B]", "µM", ">", 62.5),
]

---

Assay Info: Substrate activity at recombinant type-1 nitroreductase in promastigote stage of Leishmania donovani MHOM/SD/62/1S-CL2D LdBOB assessed as inhibition of parasite growth after 72 hrs by resazurin dye based assay
Parameter: IC50

# Compound Structure, Parameter, Result
data = [
    ("O=[N+]([O-])c1c(CS(=O)(=O)c2ccccc2)nc2c(-c3cccc(CO)c3)cc(Cl)cn12", "IC50", "70 nM"),
    ("O=[N+]([O-])c1c(CS(=O)(=O)c2ccccc2)nc2c(Br)cc(Br)cn12", "IC50", "70 nM"),
    ("O=[N+]([O-])c1c(CS(=O)(=O)c2ccccc2)nc2c(-c3ccncc3)cc(Cl)cn12", "IC50", "40 nM"),
]

---

A collection of molecules and their measured Activity
Assay Info: Electrochemical behavior of the compound assessed as redox potential corrected toward normal hydrogen electrode by cyclic voltammetry
Format: physicochemical
Parameter: Activity (V)

# Compound Structure, Scale Unit, Result
measured = [
    ("O=[N+]([O-])c1c(CS(=O)(=O)c2ccccc2)nc2c(-c3cccc(CO)c3)cc(Cl)cn12", "V", -0.7),
    ("O=[N+]([O-])c1c(CS(=O)(=O)c2ccccc2)nc2c(-c3ccccc3)cc(Cl)cn12", "V", -0.69),
    ("O=[N+]([O-])c1c(CS(=O)(=O)c2ccccc2)nc2c(Br)cc(Br)cn12", "V", -0.59),
    ("O=[N+]([O-])c1c(CS(=O)(=O)c2ccccc2)nc2c(-c3cccc(C(F)(F)F)c3)cc(Cl)cn12", "V", -0.67),
    ("CSc1ccc(OCc2ncc([N+](=O)[O-])n2C)cc1", "V", -0.83),
]

---

Tested on: HepG2
Assay Info: Cytotoxicity against human HepG2 cells assessed as reduction in cell viability after 72 hrs by MTT assay
Format: cell-based
Experimental Conditions: hepg2, 72 h
CC50 values for the molecules below.

# Compound Structure, CC50
data = [
    ("O=[N+]([O-])c1c(CS(=O)(=O)c2ccccc2)nc2c(-c3ccccc3C(F)(F)F)cc(Cl)cn12", "22.7 µM"),
    ("O=[N+]([O-])c1c(CS(=O)(=O)c2ccccc2)nc2c(-c3ccccc3)cc(Cl)cn12", "> 15.6 µM"),
    ("COc1ccc(-c2cc(Cl)cn3c([N+](=O)[O-])c(CS(=O)(=O)c4ccccc4)nc23)cc1", "> 3.9 µM"),
    ("O=[N+]([O-])c1c(CS(=O)(=O)c2ccccc2)nc2c(-c3ccc(CO)cc3)cc(Cl)cn12", "13.1 µM"),
    ("O=[N+]([O-])c1c(CS(=O)(=O)c2ccccc2)nc2c(-c3ccc(F)cc3F)cc(Cl)cn12", "> 7.8 µM"),
    ("O=[N+]([O-])c1c(CS(=O)(=O)c2ccccc2)nc2c(-c3ccncc3)cc(Cl)cn12", "> 50 µM"),
    ("O=[N+]([O-])c1c(CS(=O)(=O)c2ccccc2)nc2c(-c3ccc(O)cc3)cc(Cl)cn12", "> 12.5 µM"),
    ("O=[N+]([O-])c1c(CS(=O)(=O)c2ccccc2)nc2c(-c3cccc(CO)c3)cc(Cl)cn12", "> 25 µM"),
]

---

Test system: THP-1
Assay Info: Cytotoxicity against human THP1 cells assessed as reduction in cell viability after 72 hrs by MTT assay
Type: cell-based
Experimental Conditions: thp-1, 72 h
Entries and their measured CC50 follow.

# Compound Structure, CC50
measured = [
    ("O=[N+]([O-])c1c(CS(=O)(=O)c2ccccc2)nc2c(-c3cccc(CO)c3)cc(Cl)cn12", "> 15 µM"),
    ("O=[N+]([O-])c1c(CS(=O)(=O)c2ccccc2)nc2c(-c3ccncc3)cc(Cl)cn12", "> 25 µM"),
    ("CCCCCCCCCCCCCCCCOP(=O)([O-])OCC[N+](C)(C)C", "> 40 µM"),
    ("O=[N+]([O-])c1c(CS(=O)(=O)c2ccccc2)nc2c(Br)cc(Br)cn12", "> 25 µM"),
    ("COc1cccc2c1C(=O)c1c(O)c3c(c(O)c1C2=O)C[C@@](O)(C(=O)CO)C[C@@H]3O[C@H]1C[C@H](N)[C@H](O)[C@H](C)O1", "1.4 µM"),
]

---

Assay Info: Selectivity index, ratio of CC50 for human HepG2 cells to IC50 for intramacrophage amastigote stage of Leishmania donovani infected in human THP1 cells
Type: toxicity, cell-based
Experimental Conditions: read-out: Ratio CC50/IC50
Listing of recorded selectivity ratio by entry.

# Compound, selectivity ratio
measured = [
    ("CSc1ccc(OCc2ncc([N+](=O)[O-])n2C)cc1 [FEXINIDAZOLE]", "> 50"),
    ("O=[N+]([O-])c1c(CS(=O)(=O)c2ccccc2)nc2c(Br)cc(Br)cn12", "> 5.6"),
    ("O=[N+]([O-])c1c(CS(=O)(=O)c2ccccc2)nc2c(-c3ccncc3)cc(Cl)cn12", "> 21.7"),
]

---

Assay Info: Substrate activity at recombinant nitroreductase 2 in promastigote stage of Leishmania donovani MHOM/SD/62/1S-CL2D LdBOB assessed as inhibition of parasite growth after 72 hrs by resazurin dye based assay

# Compound Structure, IC50 / µM
data = [
    ("O=[N+]([O-])c1c(CS(=O)(=O)c2ccccc2)nc2c(-c3ccncc3)cc(Cl)cn12", 2),
    ("O=[N+]([O-])c1c(CS(=O)(=O)c2ccccc2)nc2c(Br)cc(Br)cn12", 3),
    ("O=[N+]([O-])c1c(CS(=O)(=O)c2ccccc2)nc2c(-c3cccc(CO)c3)cc(Cl)cn12", 1.9),
]

---

Assay Info: Selectivity ratio of IC50 for wild type promastigote stage of Leishmania donovani MHOM/SD/62/1S-CL2D LdBOB to substrate activity at recombinant type-1 nitroreductase in promastigote stage of Leishmania donovani MHOM/SD/62/1S-CL2D LdBOB
Assay type: toxicity
Parameter: Ratio IC50

# Compound Structure, Parameter, Result
records = [
    ("O=[N+]([O-])c1c(CS(=O)(=O)c2ccccc2)nc2c(-c3cccc(CO)c3)cc(Cl)cn12", "Ratio IC50", "20 to 40"),
    ("O=[N+]([O-])c1c(CS(=O)(=O)c2ccccc2)nc2c(-c3ccncc3)cc(Cl)cn12", "Ratio IC50", "20 to 40"),
]
